- TEST_DETAILS: logP determination by HPLC on a reversed-phase column (EEC Directive 79/831 Annex V.A8)
- Assay type: physicochemical
- CONDITION_DESCRIPTION: reversed-phase C18 HPLC column, reversed-phase column (C 18), 43° C., acidic range (a): 0.1% aqueous phosphoric acid, acetonitrile gradient 10% to 90%
This section presents molecules with their documented chromatographic logP values.
MEASURED_QUANTITY: chromatographic logP

MOLECULE	RECORDED_NUMBER
CO/N=C/c1ccc(-c2ccccc2NC(=O)c2ccccc2Br)cc1 [Example 39]	3.61
Cc1nc(C(F)(F)F)c(C(=O)Nc2ccccc2-c2ccc(/C=N\OC(C)C)cc2)s1 [Example 5]	4.23
Cn1cc(C(=O)Nc2ccccc2-c2ccc(/C=N\O)cc2)c(C(F)(F)F)n1 [Example 41]	3.19
CO/N=C/c1ccc(-c2ccccc2NC(=O)c2cn(C)nc2C(F)(F)F)cc1F [Example 112]	3.21
CO/N=C/c1ccc(-c2ccccc2NC(=O)c2sc(Cl)nc2C)cc1 [Example 67]	3.75
CO/N=C/c1ccc(-c2ccccc2NC(=O)c2ccc(C(F)(F)F)o2)cc1 [Example 62]	3.99
CO/N=C/c1cccc(-c2ccccc2NC(=O)c2ccc([N+](=O)[O-])o2)c1 [Example 102]	3.26
CO/N=C/c1cccc(-c2ccccc2NC(=O)c2sc(C)nc2C(F)F)c1 [Example 61]	3.26
CCCO/N=C/c1ccc(-c2ccccc2NC(=O)c2c(C)nn(C)c2Cl)cc1 [Example 118]	4.22
CO/N=C/c1cccc(-c2ccccc2NC(=O)c2sccc2Br)c1 [Example 57]	4.39
CO/N=C\c1cc(-c2ccccc2NC(=O)c2cn(C)nc2C(F)(F)F)ccc1/C=N/OC [Example 50]	3.36
CO/N=C/c1cccc(-c2ccccc2NC(=O)C2=C(C)OCCS2)c1 [Example 59]	3.64
CO/N=C/c1ccc(-c2ccccc2NC(=O)c2ccccc2I)cc1 [Example 45]	3.73
CO/N=C/c1cccc(-c2ccccc2NC(=O)c2ccoc2C)c1 [Example 43]	3.47
CO/N=C/c1cccc(-c2ccccc2NC(=O)c2ccc(C(F)(F)F)o2)c1 [Example 63]	4.02
CO/N=C/c1ccc(-c2ccccc2NC(=O)c2cn(C)cc2C(C)C)cc1 [Example 66]	3.82
CO/N=C/c1ccc(-c2ccccc2NC(=O)c2sc(C)nc2C(F)(F)F)cc1Cl [Example 74]	3.95
CO/N=C/c1cccc(-c2ccccc2NC(=O)c2sc(C)nc2C(F)(F)F)c1 [Example 2]	3.42

###

- TEST_DETAILS: logP determination by HPLC on a reversed-phase column (EEC Directive 79/831 Annex V.A8)
- Format: physicochemical
- CONDITION_DESCRIPTION: reversed-phase C18 HPLC column, reversed-phase column (C 18), 43° C., acidic range (a): 0.1% aqueous phosphoric acid, acetonitrile gradient 10% to 90%
This section presents molecules with their documented chromatographic logP values.

INPUT_SMILES	chromatographic logP
CO/N=C/c1cccc(-c2ccccc2NC(=O)c2cn(C)nc2C(F)(F)F)c1	3.25
CO/N=C/c1ccc(-c2ccccc2NC(=O)c2sc(C)nc2C(F)F)cc1	3.26
CO/N=C/c1cccc(-c2ccccc2NC(=O)c2ccccc2I)c1	3.73
CO/N=C/c1cccc(-c2ccccc2NC(=O)c2sc(Cl)nc2C)c1	3.75
CO/N=C/c1ccc(-c2ccccc2NC(=O)c2ccoc2C)cc1	3.47
CO/N=C/c1ccc(-c2ccccc2NC(=O)c2cccnc2C)cc1	2.04
CO/N=C/c1cccc(-c2ccccc2NC(=O)c2ccsc2C)c1	3.59
CO/N=C/c1cccc(-c2ccccc2NC(=O)c2sc(N(C)C)nc2C(F)(F)F)c1	4
CO/N=C/c1ccc(-c2ccccc2NC(=O)c2ccccc2C)cc1	3.56
CO/N=C/c1ccc(-c2ccccc2NC(=O)c2cccnc2O)cc1	2.43
CO/N=C/c1ccc(-c2ccccc2NC(=O)c2cc(Cl)sc2Cl)cc1	4.67
CCn1nc(C)c(C(=O)Nc2ccccc2-c2ccc(/C=N/OC)cc2)c1Cl	3.87
CO/N=C/c1cccc(-c2ccccc2NC(=O)c2ccco2)c1	3.2
CO/N=C/c1ccc(-c2ccccc2NC(=O)c2cc(C)oc2C(F)(F)F)cc1	3.94
CCCO/N=C/c1ccc(-c2ccccc2NC(=O)c2sc(C)nc2C(F)(F)F)cc1	4.26
CO/N=C/c1cccc(-c2ccccc2NC(=O)c2ccc(Br)o2)c1	3.8
CO/N=C/c1ccc(-c2ccccc2NC(=O)c2ccc([N+](=O)[O-])o2)cc1	3.26
CO/N=C\c1ccc(-c2ccccc2NC(=O)c2c(C)nn(C)c2Cl)cc1	3.24

###

- TEST_DETAILS: logP determination by HPLC on a reversed-phase column (EEC Directive 79/831 Annex V.A8)
- Type: physicochemical
- CONDITION_DESCRIPTION: reversed-phase C18 HPLC column, reversed-phase column (C 18), 43° C., acidic range (a): 0.1% aqueous phosphoric acid, acetonitrile gradient 10% to 90%
MEASURED_QUANTITY: chromatographic logP

INPUT_SMILES	RESULT
CO/N=C/c1ccc(-c2ccccc2NC(=O)c2ccsc2C)cc1	3.58
CO/N=C\c1ccc(-c2ccccc2NC(=O)c2cn(C)cc2C)cc1	5.1
CO/N=C/c1ccc(-c2c(C)cccc2NC(=O)c2sc(C)nc2C(F)(F)F)cc1	3.78
CO/N=C/c1ccc(-c2ccccc2NC(=O)c2ccc(Br)o2)cc1	3.78
CO/N=C/c1ccc(-c2ccccc2NC(=O)c2ccco2)cc1	3.2

###

- TEST_DETAILS: logP determination by HPLC on a reversed-phase column (EEC Directive 79/831 Annex V.A8)
- Type: physicochemical
- CONDITION_DESCRIPTION: reversed-phase C18 HPLC column, reversed-phase column (C 18), 43° C., acidic range (a): 0.1% aqueous phosphoric acid, acetonitrile gradient 10% to 90%
This section presents compounds with their documented chromatographic logP values.
MEASURED_QUANTITY: chromatographic logP

INPUT_SMILES	RECORDED_NUMBER
CCc1nn(C)c(Cl)c1C(=O)Nc1ccccc1-c1cccc(/C=N/OC)c1	3.72
CO/N=C/c1ccc(-c2ccccc2NC(=O)c2ccsc2)cc1	3.1
CO/N=C/c1ccc(-c2ccccc2NC(=O)c2sc(N(C)C)nc2C(F)(F)F)cc1	3.84
CO/N=C/c1cccc(-c2ccccc2NC(=O)c2c(C3CC3)nn(C)c2Cl)c1	3.81
CCc1nn(C)c(Cl)c1C(=O)Nc1ccccc1-c1ccc(/C=N/OC)cc1	3.68
CO/N=C/c1cccc(-c2ccccc2NC(=O)c2nc(C)oc2C(F)(F)F)c1	4.45
CO/N=C/c1ccc(-c2ccccc2NC(=O)c2ccccc2C(F)(F)F)cc1	3.75
CO/N=C/c1cccc(-c2ccccc2NC(=O)c2ccccc2C(F)(F)F)c1	3.76
CCCO/N=C/c1ccc(-c2ccccc2NC(=O)c2cn(C)nc2C(F)(F)F)cc1	3.86
CO/N=C/c1ccc(-c2ccccc2NC(=O)c2cccnc2OC)cc1	4.12
CO/N=C/c1ccc(-c2ccccc2NC(=O)c2c(C3CC3)nn(C)c2Cl)cc1	3.76
CO/N=C/c1cccc(-c2ccccc2NC(=O)c2sccc2C)c1	3.84
CO/N=C/c1ccc(-c2ccccc2NC(=O)c2cn(C)nc2C(F)(F)F)cc1Cl	3.54
CO/N=C/c1cccc(-c2ccccc2NC(=O)c2c(C)nn(C)c2Cl)c1	3.37
CO/N=C/c1cccc(-c2ccccc2NC(=O)c2cc(C)oc2C(F)(F)F)c1	3.97
CCCCO/N=C/c1ccc(-c2ccccc2NC(=O)c2cn(C)nc2C(F)(F)F)cc1	4.26
CO/N=C/c1ccc(-c2ccccc2NC(=O)c2ccc(OC)nc2OC)cc1	4.73
CO/N=C/c1ccc(-c2ccccc2NC(=O)c2cn(C)nc2C(F)F)cc1F	3

###

- TEST_DETAILS: logP determination by HPLC on a reversed-phase column (EEC Directive 79/831 Annex V.A8)
- Assay type: physicochemical
- CONDITION_DESCRIPTION: reversed-phase C18 HPLC column, reversed-phase column (C 18), 43° C., acidic range (a): 0.1% aqueous phosphoric acid, acetonitrile gradient 10% to 90%
MEASURED_QUANTITY: chromatographic logP

INPUT_SMILES	MEASURED_QUANTITY	RESULT
CO/N=C/c1cccc(-c2ccccc2NC(=O)c2cc(Cl)sc2Cl)c1	chromatographic logP	4.72
CO/N=C/c1ccc(-c2ccccc2NC(=O)c2ccccc2Cl)cc1	chromatographic logP	3.59
CO/N=C/c1ccc(-c2ccccc2NC(=O)c2sccc2C)cc1	chromatographic logP	3.86
CO/N=C/c1ccc(-c2ccccc2NC(=O)c2sc(Cl)nc2C(F)(F)F)cc1	chromatographic logP	4.08
Cc1nc(C(F)(F)F)c(C(=O)Nc2ccccc2-c2ccc(/C=N\O)cc2)s1	chromatographic logP	2.78
CCCCO/N=C\c1ccc(-c2ccccc2NC(=O)c2sc(C)nc2C(F)(F)F)cc1	chromatographic logP	4.65
CCCCO/N=C(/C)c1ccc(-c2ccccc2NC(=O)c2sc(C)nc2C(F)(F)F)cc1	chromatographic logP	4.77
CO/N=C/c1ccc(-c2ccccc2NC(=O)C2=C(C)OCCS2)cc1	chromatographic logP	3.75
CO/N=C/c1ccc(-c2ccccc2NC(=O)c2sccc2Br)cc1	chromatographic logP	4.39
